target: Fusarium graminearum myosin I (FgMyoI) (Fusarium graminearum)
reported-property: pIC50
To interpret pIC50, take it as minus log10 of a concentration measured in moles per litre.

Any idea what pIC50 came out for CCOC(=O)/C(C#N)=C(\N)c1ccccc1 on Fusarium graminearum myosin I (FgMyoI) (Fusarium graminearum)?
6.44
